test system: phospho-Rb (Ser807/811); assay: In-cell western analysis of Rb phosphorylation in human PASMCs; assay type: cell-based; settings: PASMC; human PASMCs; PDGF-BB; FIG. 2b; read-out: IC50, PDGF-BB induced Rb phosphorylation
quantity_kind: IC50 (nM)
Entry rule: numbers only, all in nM.

Item: "CC(=O)c1c(C)c2cnc(Nc3ccc(N4CCNCC4)cn3)nc2n(C2CCCC2)c1=O" | IC50: 5.2

###

Tested on: hPAAF
Test: EdU cell proliferation assay, hPAAF
Type: cell-based
Conditions: Homo sapiens, 5% FBS, N = 6, FIG. 1f, read-out: hPAAF IC50 (nM), inhibition of proliferation
Procedure: Alternatively, rather than using BrdU, EdU (5-ethynyl-2′-deoxyuridine) can be used. Cells were first pre-incubated with different concentrations of the CDK inhibitor for 30 minutes, and then 5% FBS was added to stimulate cell proliferation. Cells were maintained for 24 h before the proliferation rate was evaluated using EDU Click-iT EdU Alexa Fluor® 647 HCS Assay (Thermofisher Scientific, USA). EdU was added to the medium 16 h before the quantification of EdU incorporation. […]
quantity_kind: IC50 (nM)
Answer with a number only, understood to be in nM.

For orientation, consider the following solved cases.
INSERT INTO results (smiles_code, value_reported) VALUES
  ('CC(=O)c1c(C)c2cnc(Nc3ccc(N4CCNCC4)cn3)nc2n(C2CCCC2)c1=O', 0.4),
  ('CCN1CCN(Cc2ccc(Nc3ncc(F)c(-c4cc(F)c5nc(C)n(C(C)C)c5c4)n3)nc2)CC1', 1.2);

Now consider the entry below.
// recorded IC50 for "CN(C)C(=O)c1cc2cnc(Nc3ccc(N4CCNCC4)cn3)nc2n1C1CCCC1" : 0.8
